The entries below are paired with their reported CA1 human SPR pKD.
Target: human CA-I (CA1) (Homo sapiens (Human))
Assay: Surface plasmon resonance, carbonic anhydrase I
Details: 25° C., CM5 chip
API note: the answer field is a bare number with no unit suffix.

CC(C)c1cn(Cc2ccc(S(N)(=O)=O)c(-c3ccccc3)n2)c2nc(C3CC3)nn2c1=O [Compound 27]; 3.0
CC(C)c1nn2c(=O)c(C(C)C)cn(C[C@H]3C[C@H]4C[C@@H]3CN4S(N)(=O)=O)c2c1F [Compound 43]; 3.0
Cc1nc2n(C[C@H]3C[C@H]4C[C@@H]3CN4S(N)(=O)=O)cc(-c3cccc(F)c3)c(=O)n2n1 [Compound 6]; 3.0
CC(C)c1cn(C[C@H]2C[C@H]3C[C@@H]2CN3S(N)(=O)=O)c2c3cccnc3nn2c1=O [Compound 41]; 3.0

Now for the compound whose CA1 human SPR pKD we want.
Qu. Looking for the measured CA1 human SPR pKD of COc1cccc2c1nn1c(=O)c(C(C)C)cn(C[C@H]3C[C@H]4C[C@@H]3CN4S(N)(=O)=O)c21 [Compound 42] , can you help?
Ans. 3.0

====

Target: Human ENPP1 (Homo sapiens (Human))
Sequence (P22413 whole entry): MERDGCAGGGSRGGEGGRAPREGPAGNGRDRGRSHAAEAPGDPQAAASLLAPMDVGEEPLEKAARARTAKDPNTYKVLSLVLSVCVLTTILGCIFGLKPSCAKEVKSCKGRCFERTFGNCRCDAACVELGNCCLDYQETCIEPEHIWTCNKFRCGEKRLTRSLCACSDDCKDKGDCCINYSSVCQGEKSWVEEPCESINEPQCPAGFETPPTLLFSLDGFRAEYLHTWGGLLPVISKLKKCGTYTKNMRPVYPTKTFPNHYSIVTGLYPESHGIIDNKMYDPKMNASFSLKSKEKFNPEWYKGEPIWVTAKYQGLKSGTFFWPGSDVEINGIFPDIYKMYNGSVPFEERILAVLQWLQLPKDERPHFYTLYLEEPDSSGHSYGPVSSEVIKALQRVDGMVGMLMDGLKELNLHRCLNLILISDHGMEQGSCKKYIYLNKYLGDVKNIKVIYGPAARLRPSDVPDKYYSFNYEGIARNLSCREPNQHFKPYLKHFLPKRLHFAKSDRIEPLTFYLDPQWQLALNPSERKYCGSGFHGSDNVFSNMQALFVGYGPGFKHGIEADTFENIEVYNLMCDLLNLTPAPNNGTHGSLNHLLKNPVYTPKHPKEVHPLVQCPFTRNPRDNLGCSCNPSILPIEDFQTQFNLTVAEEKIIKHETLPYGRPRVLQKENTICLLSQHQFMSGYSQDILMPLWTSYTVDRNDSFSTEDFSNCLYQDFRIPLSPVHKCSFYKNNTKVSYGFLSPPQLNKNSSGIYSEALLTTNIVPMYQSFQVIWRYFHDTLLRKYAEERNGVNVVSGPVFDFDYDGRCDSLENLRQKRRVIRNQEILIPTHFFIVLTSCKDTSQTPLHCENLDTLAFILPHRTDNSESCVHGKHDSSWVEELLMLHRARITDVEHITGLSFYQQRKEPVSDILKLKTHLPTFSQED
Returns: string. Value is yes if measured EC50 is below 30 nM, and no if it is greater than or equal to it.

These solved cases illustrate the format of a correct answer.
Cc1nc2n(C[C@H]3C[C@H]4C[C@@H]3CN4S(N)(=O)=O)cc(-c3cccnc3)c(=O)n2n1; no
CC(C)c1cn(Cc2ccc([S@](C)(=N)=O)c(F)c2)c2cc(C3CC3)nn2c1=O (single isomer, unassigned); yes
CC(C)c1cn(Cc2ccc(S(C)(=N)=O)c(F)c2)c2nc(C3CC3)nn2c1=O (stereo not shown); yes
Cc1nc2n(Cc3ccc4c(c3)CCCS4(=N)=O)cc(C(C)C)c(=O)n2n1 (stereo not shown); no
CC(C)c1cn(Cc2ccc(S(=N)(=O)C(F)F)cc2)c2nc(C3CC3)nn2c1=O (single isomer, unassigned); no
Cc1cc(Cn2cc(C(C)C)c(=O)n3nc(C4CC4)nc23)ccc1S(C)(=N)=O (stereo not shown); yes

Kindly review the next compound as well.
Qu. Take the compound "CC(C)c1nn2c(=O)c(C(C)C)cn(C[C@H]3C[C@H]4C[C@@H]3CN4S(N)(=O)=O)c2c1F" and say whether its EC50 is less than 30 nM.
Ans. yes

====

Target: human CA-I (CA1) (Homo sapiens (Human))
Experiment: Surface plasmon resonance, carbonic anhydrase I
Conditions: 25° C., CM5 chip
CA1 human SPR pKD values by entry

CC(C)c1cn(Cc2ccc(S(C)(=N)=O)cc2)c2cc(C3CC3)nn2c1=O (stereo not shown) [Compound 57]; <1

Qu. What does the record list as CA1 human SPR pKD for CC(C)c1cn(Cc2ccc(S(C)(=N)=O)cc2F)c2nc(C3CC3)nn2c1=O (stereo not shown) [Compound 12] ?
Ans. <1

Qu. Another: Cc1nc2n(C[C@H]3C[C@H]4C[C@@H]3CN4S(N)(=O)=O)cc(-c3ccc(F)cc3)c(=O)n2n1 [Compound 14]
Ans. <1

====

Reported CA1 human SPR pKD is given for each of the following compounds.
Molecular target: human CA-I (CA1) (Homo sapiens (Human), UniProt P00915)
Sequence (P00915 whole entry): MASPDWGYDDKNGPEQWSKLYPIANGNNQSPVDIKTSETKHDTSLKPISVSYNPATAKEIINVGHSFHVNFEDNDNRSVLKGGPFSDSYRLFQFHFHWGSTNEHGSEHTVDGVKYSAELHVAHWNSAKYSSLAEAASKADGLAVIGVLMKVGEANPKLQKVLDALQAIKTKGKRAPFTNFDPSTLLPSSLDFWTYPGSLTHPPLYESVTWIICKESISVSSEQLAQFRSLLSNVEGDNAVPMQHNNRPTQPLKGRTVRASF
Assay: Surface plasmon resonance, carbonic anhydrase I
Details: 25° C., CM5 chip
Kindly provide the number alone.

Some solved entries appear below for comparison.
CC(C)c1cn(Cc2c(F)cc(S(C)(=N)=O)cc2F)c2nc(C3CC3)nn2c1=O (stereo not shown) [Compound 26]; 3.0
Cc1nn2c(=O)c(C(C)C)cn(C[C@H]3C[C@H]4C[C@@H]3CN4S(N)(=O)=O)c2c1Cl [Compound 4]; 3.0

Okay, next one:
Qu. State the recorded CA1 human SPR pKD for this entry: COc1c(C2CC2)nn2c(=O)c(C(C)C)cn(C[C@H]3C[C@H]4C[C@@H]3CN4S(N)(=O)=O)c12 [Compound 44]
Ans. 3.0
